molecular target: hA1 (Homo sapiens (Human), UniProt P30542); details: hA1 membrane, [3H]-DPCPX; read-out: Binding Affinity (IC50 nM) hA1
Sequence (P30542 whole entry): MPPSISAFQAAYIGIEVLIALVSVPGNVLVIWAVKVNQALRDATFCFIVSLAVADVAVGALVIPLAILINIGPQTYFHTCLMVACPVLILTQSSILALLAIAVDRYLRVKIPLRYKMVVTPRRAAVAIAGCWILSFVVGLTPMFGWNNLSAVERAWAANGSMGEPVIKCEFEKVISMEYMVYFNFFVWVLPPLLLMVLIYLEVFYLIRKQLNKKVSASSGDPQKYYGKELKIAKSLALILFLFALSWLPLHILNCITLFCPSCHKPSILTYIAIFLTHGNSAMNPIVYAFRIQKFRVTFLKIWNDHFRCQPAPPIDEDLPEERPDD
Record form. Attribute: IC50. Fill in for each entry.
// return numeric value only (unit: nM, not printed)

Summary for this compound, `Nc1cccc(CNC(=O)c2nc(-c3ccc4nccn4c3)c(-c3ncco3)nc2N)n1` : IC50 is 67

Memo: `Nc1nc(-c2ncco2)c(-c2ccc3[nH]cnc3c2)nc1C(=O)NCc1ncccc1F` , reported IC50: 696

What the record says about `Nc1nc(-c2ncco2)c(-c2ccc3ncnn3c2)nc1C(=O)NCc1ncccc1F` : IC50 is 685

Value of measured IC50 for the entry `Cn1cnc2ccc(-c3nc(C(=O)NCc4ncccc4F)c(N)nc3-c3ncco3)cc21` : 78

The reported IC50 of the compound `Cc1cnc2ccc(-c3nc(C(=O)NC[C@@H]4CCCO4)c(N)nc3-c3ncco3)cn12` was 68

====

molecular target: hA2a/CHO (Homo sapiens (Human), UniProt P29274); test: cAMP inhibition assay in hA2a/CHO cells, 10 μM adenosine; type: cell-based; conditions: read-out: cAMP & FLIPR IC50 (nM) hA2a;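 also: compounds added to cells 30 min ahead of adenosine, then a further 30 min at 37 °C with adenosine before cAMP detection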
Sequence (P29274 whole entry): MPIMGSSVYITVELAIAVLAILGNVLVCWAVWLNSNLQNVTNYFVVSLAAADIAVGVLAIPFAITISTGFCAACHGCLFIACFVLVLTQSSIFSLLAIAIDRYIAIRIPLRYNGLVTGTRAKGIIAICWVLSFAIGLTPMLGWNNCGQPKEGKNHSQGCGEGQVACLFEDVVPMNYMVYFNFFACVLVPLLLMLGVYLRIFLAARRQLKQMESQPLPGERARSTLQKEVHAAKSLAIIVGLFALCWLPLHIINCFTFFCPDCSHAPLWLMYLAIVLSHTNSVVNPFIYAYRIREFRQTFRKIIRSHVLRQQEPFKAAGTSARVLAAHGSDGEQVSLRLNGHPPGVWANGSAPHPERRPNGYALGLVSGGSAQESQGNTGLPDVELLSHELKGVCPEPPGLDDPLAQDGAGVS
Entries whose IC50 is below 8 nM take Satisfied; entries at or above 8 nM take Not satisfied.

Field: below-cutoff. Rule: recorded IC50 strictly less than 8 nM. Subject: Cc1cnc2ccc(-c3nc(C(=O)NCC(C4CC4)N(C)C)c(N)nc3-c3ncco3)cn12 (single isomer, unassigned; isomer 1) [Example 253]
Not satisfied

For `COCCCNC(=O)c1nc(-c2ccc3ncc(C)n3c2)c(-n2nccn2)nc1N` , is the recorded IC50 below the cut-off of 8 nM?
Satisfied

Does `COc1ncccc1CNC(=O)c1nc(-c2cc(C)nc(C)c2)c(-c2ccc(F)cc2)nc1N` have IC50 strictly under 8 nM?
Not satisfied

Please check: IC50 for Cc1cnc2ccc(-c3nc(C(=O)NCC4CN(C)CCO4)c(N)nc3-c3ncco3)cn12 (racemic) , strictly under 8 nM or not?
Not satisfied

Does Cc1cnc2ccc(-c3nc(C(=O)NCC4COCCO4)c(N)nc3-c3ncco3)cn12 (racemic) have IC50 strictly under 8 nM?
Satisfied

Record Cc1cnc2ccc(-c3nc(C(=O)NCC4CCCOC4)c(N)nc3-c3ncco3)cn12 (single isomer, unassigned; isomer 1) [Example 167] : is its IC50 strictly below 8 nM?
Satisfied

is_below(IC50, 8 nM) for `Cc1cnc2ccc(-c3nc(CNC(=O)[C@H]4CCCN4C)c(N)nc3-c3ccc(F)cc3)cn12` ?
Satisfied

Bench note: check whether `Cc1cnc2ccc(-c3nc(C(=O)NC[C@H](C)O)c(N)nc3-c3ncco3)cn12` shows IC50 below 8 nM
Not satisfied

Consider the compound `Cc1cc(-c2nc(C(=O)Nc3ccccc3OC(F)F)c(N)nc2-n2ccc(C)n2)cc(N)n1` . Is its IC50 strictly less than 8 nM?
Not satisfied

Is IC50 strictly under 8 nM for the entry `Cc1cnc2ccc(-c3nc(C(=O)NC[C@@H]4CCCN4)c(N)nc3-c3ncco3)cn12` ?
Not satisfied

Check if IC50 falls below 8 nM for `Nc1nc(-c2ncco2)c(-c2ccc(=O)n(C3COC3)c2)nc1C(=O)NCc1c(F)cccc1F` .
Not satisfied

# TODO verify IC50 < 8 nM strictly for this compound: COC1CCCC(NC(=O)c2nc(-c3ccc4ncc(C)n4c3)c(-c3ncco3)nc2N)C1 (single isomer, unassigned; isomer 3) [Example 294]
Satisfied

I wonder whether `Cc1cc(-c2nc(C(=O)NCc3c(F)cccc3F)c(N)nc2-c2ccc(C)o2)cc(C)n1` has IC50 below 8 nM. Can you tell?
Satisfied

Is 8 nM strictly greater than the compound's reported IC50? compound: `Cn1cc(-c2nc(C(=O)NCc3ccccc3OC(F)F)c(N)nc2-c2ccc(F)cc2)ccc1=O`
Satisfied

Please state whether IC50 is below 8 nM for COC1CCOC1CNC(=O)c1nc(-c2ccc3ncc(C)n3c2)c(-c2ncco2)nc1N (single isomer, unassigned) [Example 280]
Satisfied

# check: IC50 < 8 nM for `Cc1cccc(CNC(=O)c2nc(-c3ccc(=O)n(C)c3)c(-c3ncco3)nc2N)n1`
Not satisfied

Confirm or reject: IC50 of `Cc1cnc2ccc(-c3nc(C(=O)NCCC(=O)N4CCCCC4)c(N)nc3-c3ncco3)cn12` lies strictly below 8 nM
Not satisfied

Quick check: does COC(C)CNC(=O)c1nc(-c2ccc3ncc(C)n3c2)c(-c2ncco2)nc1N (single isomer, unassigned; isomer 1) [Example 248] have IC50 under 8 nM?
Satisfied

State whether 8 nM exceeds IC50 recorded for `Cn1cc(-c2nc(C(=O)NCc3ncccc3CO)c(N)nc2-c2ncco2)ccc1=O` .
Not satisfied

Is the reported IC50 for Cc1cnc2ccc(-c3nc(C(=O)NCC(C4CC4)N(C)C)c(N)nc3-c3ncco3)cn12 (single isomer, unassigned; isomer 2) [Example 269] strictly below 8 nM?
Not satisfied

Threshold test, IC50 < 8 nM: `Cc1cc(-c2nc(C(=O)NCc3ccccc3OC(F)F)c(N)nc2-c2ccc(F)cc2)cc(C)n1`
Not satisfied

# strict comparison: is reported IC50 < 8 nM? input = Cc1cnc2ccc(-c3nc(C(=O)NCC4CCCCN4C)c(N)nc3-c3ncco3)cn12 (single isomer, unassigned; isomer 1) [Example 124]
Not satisfied
